Test system: Leishmania donovani
testMethodNotes: Antileishmanial activity against Leishmania donovani MHOM/IN/00/DEVI promastigotes measured after 72 hrs by MTT assay
Format: functional, organism-based
parameterMeasured: IC50

Before answering, review these 4 worked examples.
compound="CC1Cn2c(nc([N+](=O)[O-])c2C#Cc2ccc(CO)cc2)O1 (stereo unspecified)" parametermeasured=IC50 valuemeasured="4.11 µM"
compound="CC1Cn2c(nc([N+](=O)[O-])c2-c2ccc(CO)cc2)O1 (stereo unspecified)" parametermeasured=IC50 valuemeasured="> 10 µM"
compound="COc1cc(-c2c([N+](=O)[O-])nc3n2CC(C)O3)cc(OC)c1OC (stereo unspecified)" parametermeasured=IC50 valuemeasured="> 10 µM"
compound="CC1Cn2c(nc([N+](=O)[O-])c2C#Cc2ccc(C(C)(C)C)cc2)O1 (stereo unspecified)" parametermeasured=IC50 valuemeasured="0.61 µM"

Let's switch to this compound now.
Query block: Tell me reported IC50 for CC1Cn2c(nc([N+](=O)[O-])c2-c2ccccc2)O1 (stereo unspecified) , tested with Leishmania donovani.
Result block: > 10 µM

----------
The entries below come with measured IC50 values attached.
Tested on: Leishmania donovani
testMethodNotes: Antileishmanial activity against Leishmania donovani MHOM/IN/00/DEVI promastigotes measured after 72 hrs by MTT assay
Assay type: functional, organism-based

Answered examples (4):
compound="CCCOc1ccc(-c2c([N+](=O)[O-])nc3n2CC(C)O3)cc1 (stereo unspecified)" parametermeasured=IC50 valuemeasured="> 10 µM"
compound="Cc1ccc(C#Cc2c([N+](=O)[O-])nc3n2CC(C)O3)cc1 (stereo unspecified)" parametermeasured=IC50 valuemeasured="1.66 µM"
compound="CC1Cn2c(nc([N+](=O)[O-])c2-c2ccc(C=O)cc2)O1 (stereo unspecified)" parametermeasured=IC50 valuemeasured="> 10 µM"
compound="CC1Cn2c(nc([N+](=O)[O-])c2-c2cccc(C(F)(F)F)c2)O1 (stereo unspecified)" parametermeasured=IC50 valuemeasured="> 10 µM"

Query block: IC50 lookup needed for CC1Cn2c(nc([N+](=O)[O-])c2-c2ccc(Cl)cc2)O1 (stereo unspecified) , thanks.
Result block: > 10 µM

Query block: Same question for CC1Cn2cc([N+](=O)[O-])nc2O1 (stereo unspecified) please.
Result block: 0.1 µM

Data provenance is ChEMBL document CHEMBL4680199.
